Item-by-item account of Ratio/Fc-H
System name: T1, FcRn-p3 fusion protein (human, UniProt P55899 24-297; P61769 21-119)
T1 construct: baculovirus expressed; coated on ELISA wells; not shown: amino terminal part of bacteriophage p3 protein and CVDE protein
T1 sequence (P55899 24-297, chain 1 of 2): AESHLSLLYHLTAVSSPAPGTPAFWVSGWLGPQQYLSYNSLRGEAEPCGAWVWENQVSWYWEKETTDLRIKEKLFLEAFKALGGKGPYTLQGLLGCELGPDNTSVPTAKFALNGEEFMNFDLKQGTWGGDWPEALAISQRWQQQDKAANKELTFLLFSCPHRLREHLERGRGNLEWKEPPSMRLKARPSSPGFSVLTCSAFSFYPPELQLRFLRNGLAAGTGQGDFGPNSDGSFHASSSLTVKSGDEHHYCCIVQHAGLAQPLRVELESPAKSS
T1 sequence (P61769 21-119, chain 2 of 2): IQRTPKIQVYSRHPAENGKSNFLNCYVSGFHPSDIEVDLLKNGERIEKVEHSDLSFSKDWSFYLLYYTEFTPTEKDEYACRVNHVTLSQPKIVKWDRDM
Method notes: phage ELISA pH6
Observed property: Ratio/Fc-H

binder="C4A_25 (other, EU numbering) CPPCPAPELLGGPSVFLFPPKPKDTLMISRTPEVTCVVVDVSHEDPEVKFNWYVDGVEVHNAKTKPREEQYNSTYRVVSVLTVLHQDWLDGKEYKCKVSNKALPVPIEKTISKAKGQPREPQVYTLPPSRDELTKNQVSLTCLVKGFYPSDIAVEWESNGQPENNYKTTPPMLDSDGSFFLYSKLTVDKSRWQQGNVFSCSVMHEALHYHYTQKSLSLSPGK" result="2.8 fold"
binder="T4A_48 (other, EU numbering) CPPCPAPELLGGPSVFLFPPKPKDTLMISRTPEVTCVVVDVSHEDPEVKFNWYVDGVEVHNAKTKPREEQYNSTYRVVSVLTILHQDWLDGKEYKCKVSNKALPVPIEKTISKAKGQPREPQVYTLPPSRDELTKNQVSLTCLVKGFYPSDIAVEWVSNGQPENNYKTTPPVLDSDGSFFLYSKLTVDKSRWQQGNVFSCSVMHEALHYHYTQKSLSLSPGK" result="4.5 fold"
binder="T3A_15 (other, EU numbering) CPPCPAPELLGGPSVFLFPPKPKDTLMISRTPEVTCVVEDVSHEDPEVKFNWYVDGVEVHNAKTKPREEQYNSTYRVVSVLTVLHQDWLNGKEYKCKVSNKALPAPIEKTISKAKGQPREPQVYTLPPSRDELTKNQVSLTCLVKGFYPSDIVVEWESNGQPENNYKTAPPVLDSDGSLFLYSKLTVDKSRWQQGNVFSCSVMHEALHSHYTQKSLSLSPGK" result="2.8 fold"
binder="M3A_26 (other, EU numbering) CPPCPAPELLGGPSVFLFPPKPKDTLMISRTPEVTCVVEDVSHEDPEVKFNWYVDGVEVHNAKTKPREEQYNSTYRVVSVLPVLHQDWLNGKEYKCKVSNKALPAPIEKTISKAEGRPREPQVYTLPPSRDELTKNQVSLTCLVKGFYPSDIVVEWESNGQPENNYKTTPPVLDSDGSFFLYSKLTVDKSRWQQGNVFSCSVMHEALHNHYTQKSLSLSPGK" result="1.8 fold"
binder="T5A_55 (other, EU numbering) CPPCLAPELLGGPSVLLLPPKPKDTLMISRTPEVTCVVEDVSHEDPEVKFNWYVDGVEVHNAKTKPREEQYNSTYRVVSVLPVLHQDWLNGKEYKCKVSNKALPAPIEKTISKAKGQPREPQVYTLPPSRDELTKNQVSLTCLVKGFYPSDIVVEWESNGQPENNYKTTPPVLDSDGSFFLYSKLTVDKSRWQQGNVFSCSVMHEALHNHYTQKSLSLSPGK" result="5.6 fold"
